Exercise: for every item that follows, state its recorded activity score (negative = inhibition).
# tested_on: Glycogen synthase kinase-3 beta (Homo sapiens) (UniProt P49841)
# Sequence (P49841 whole entry, looked up): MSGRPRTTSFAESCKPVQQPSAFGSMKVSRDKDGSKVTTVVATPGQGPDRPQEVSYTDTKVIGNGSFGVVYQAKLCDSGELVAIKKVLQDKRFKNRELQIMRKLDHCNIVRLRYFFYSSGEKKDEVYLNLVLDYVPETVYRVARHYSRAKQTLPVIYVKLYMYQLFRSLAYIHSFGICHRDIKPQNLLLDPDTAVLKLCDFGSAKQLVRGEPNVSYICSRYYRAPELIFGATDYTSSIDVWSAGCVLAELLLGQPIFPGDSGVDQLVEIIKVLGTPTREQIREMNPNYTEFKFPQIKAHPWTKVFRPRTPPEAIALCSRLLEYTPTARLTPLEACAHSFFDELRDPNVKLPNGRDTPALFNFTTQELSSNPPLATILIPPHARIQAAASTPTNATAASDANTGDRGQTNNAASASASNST
# assay_summary: blockers of GSK3B enzyme activity – biochemical, cell-free homogeneous, HTS, primary screen (AID 2097);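 further: 0% = median DMSO wells and -100% = median GW8510 positive control wells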
# condition_set: GST-GSK3beta kinase, ADP-Glo luminescence, 60 min; at 10 µM; stronger effect = lower value
In all, about 300,000 compounds went through this assay and about 120 (0.04%) were called active. The sample as a whole holds a higher share of actives than the screen did.

# annotated cases, reported activity score (negative = inhibition) shown
[
  {
    "compound": "CC(C)(C)NC(=O)CSC(=Nc1ccccc1F)NC#N",
    "tested_on": "Glycogen synthase kinase-3 beta (Homo sapiens) (UniProt P49841)",
    "activity score (negative = inhibition)": "0.51% (inactive)"
  },
  {
    "compound": "CCCCC1S/C(=N/N=C/c2cccs2)NC1=O (stereo unspecified)",
    "tested_on": "Glycogen synthase kinase-3 beta (Homo sapiens) (UniProt P49841)",
    "activity score (negative = inhibition)": "0.416% (inactive)"
  },
  {
    "compound": "COc1ccc(C)cc1Nc1n[n+](-c2ccccc2)c(-c2cccc(Cl)c2Cl)s1",
    "tested_on": "Glycogen synthase kinase-3 beta (Homo sapiens) (UniProt P49841)",
    "activity score (negative = inhibition)": "1.38% (inactive)"
  },
  {
    "compound": "CCCCN(C(=O)CSCC(=O)Nc1ccc(OC)cc1)c1c(N)n(CCC)c(=O)[nH]c1=O",
    "tested_on": "Glycogen synthase kinase-3 beta (Homo sapiens) (UniProt P49841)",
    "activity score (negative = inhibition)": "-1.15% (inactive)"
  },
  {
    "compound": "Nc1nc(NCCCN2CCOCC2)nc(Nc2ccccc2)c1[N+](=O)[O-]",
    "tested_on": "Glycogen synthase kinase-3 beta (Homo sapiens) (UniProt P49841)",
    "activity score (negative = inhibition)": "-73.5% (active)"
  }
]

Batch: activity score (negative = inhibition) for all items listed.
1. O=c1c2c(ncn1Cc1ccccc1)nc1n2CCC1
2. CCN(c1ccc2c(c1)OCO2)S(=O)(=O)c1cc(Br)cc2c1N(C(=O)C1CC1)CC2
3. CCOC(=O)C[C@H]1c2ccc(C(F)(F)F)cc2S(=O)(=O)N1c1ccccc1
4. O=[N+]([O-])c1ccc(NCCCN2CCOCC2)c(Cl)c1
5. COC(=O)C1=NNC2(c3ccc(C)cc3)C(=O)N(c3cccc(C)c3C)C(=O)C12 (stereo unspecified)
6. CCN(CC)S(=O)(=O)c1ccc2c3c(cccc13)C(=O)S2

["-1.79% (inactive)", "-2.85% (inactive)", "3.21% (inactive)", "-5.04% (inactive)", "1.69% (inactive)", "-2.37% (inactive)"]
